- tested_on: NK1 receptors (Cavia porcellus, UniProt P30547)
- Construct: A crude membrane fraction was prepared from the lung of male Hartley guinea pigs; from tissue; host or cells: guinea pig lung (crude membrane fraction)
- Sequence (P30547 whole entry): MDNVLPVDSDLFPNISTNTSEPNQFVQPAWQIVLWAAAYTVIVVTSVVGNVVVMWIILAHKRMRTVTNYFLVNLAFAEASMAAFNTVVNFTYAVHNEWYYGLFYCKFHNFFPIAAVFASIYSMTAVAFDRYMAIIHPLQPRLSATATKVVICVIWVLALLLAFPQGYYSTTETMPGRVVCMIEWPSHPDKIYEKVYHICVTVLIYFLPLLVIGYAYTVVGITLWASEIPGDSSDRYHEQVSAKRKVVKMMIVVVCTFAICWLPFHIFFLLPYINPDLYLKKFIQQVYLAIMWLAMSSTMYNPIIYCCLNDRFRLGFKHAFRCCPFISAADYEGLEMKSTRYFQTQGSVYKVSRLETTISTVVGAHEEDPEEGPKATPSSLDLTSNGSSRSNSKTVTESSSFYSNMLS
- procedure_summary: NK1 Receptor Binding Test
- Design: species or system guinea pig
pIC50: −log10 of the molar value.
readout: pIC50

**Query** Can you look up the measured pIC50 of CN(C[C@@H](CCN1CCC2(CCc3ccccc32)CC1)c1ccc(Cl)c(Cl)c1)C(=O)c1ccccc1 [Compound B] for me?
**Result** < 5.72

====

- tested_on: NK2 receptors (Cavia porcellus, UniProt Q64077)
- Construct: A crude membrane fraction was prepared from the ileum of male Hartley guinea pigs; from tissue; host or cells: guinea pig ileum (crude membrane fraction)
- Sequence (Q64077 whole entry): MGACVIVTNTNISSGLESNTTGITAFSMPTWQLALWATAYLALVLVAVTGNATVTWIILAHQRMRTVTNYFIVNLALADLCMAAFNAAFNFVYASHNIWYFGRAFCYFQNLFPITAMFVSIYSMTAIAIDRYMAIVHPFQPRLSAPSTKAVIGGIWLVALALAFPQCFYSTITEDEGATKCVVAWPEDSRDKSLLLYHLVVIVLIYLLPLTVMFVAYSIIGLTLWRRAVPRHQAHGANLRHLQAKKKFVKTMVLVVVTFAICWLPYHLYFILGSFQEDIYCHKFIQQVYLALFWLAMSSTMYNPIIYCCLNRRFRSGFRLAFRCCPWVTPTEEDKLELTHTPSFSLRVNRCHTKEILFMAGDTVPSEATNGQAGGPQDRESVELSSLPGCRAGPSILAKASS
- procedure_summary: NK2 Receptor Binding Test
- Parameters: species or system guinea pig
readout: IC50 (nM)
Respond numerically; units are nM and should not be typed.

**Query** Find the measured IC50: item CN(C[C@@H](CCN1CCC2(CCc3ccccc32)CC1)c1ccc(Cl)c(Cl)c1)C(=O)c1ccccc1 , target or system NK2 receptors (Cavia porcellus, UniProt Q64077).
**Result** 4.22

====

- Test system: bronchoconstriction induced with [Nle^10]-NKA[4-10], an NK2 receptor agonist
- procedure_summary: Inhibitory Effect on NKA-Induced Bronchoconstriction
- Type: in vivo, guinea pig
- details: i.v., male Hartley guinea pigs, airway pressure, test drug 5 min before [Nle^10]-NKA[4-10] i.v.
Give measured ID50 for each item. Keep answers brief.
Respond numerically; units are mg/kg and should not be typed.

**Query** Can you look up the measured ID50 of COc1cc(C(=O)N2CCOC(CCN3CCC4(CC3)c3ccccc3C[S+]4[O-])(c3ccc(Cl)c(Cl)c3)C2)cc(OC)c1OC (centres unmarked) for me?
**Result** 0.047

**Query** Can you look up the measured ID50 of CN(C[C@@H](CCN1CCC2(CCc3ccccc32)CC1)c1ccc(Cl)c(Cl)c1)C(=O)c1ccccc1 for me?
**Result** 0.37

**Query** Can you look up the measured ID50 of COc1cc(C(=O)N2CC[C@](CCN3CCC(C(N)=O)(c4ccccc4)CC3)(c3ccc(Cl)c(Cl)c3)C2)cc(OC)c1OC for me?
**Result** 1.7

**Query** Can you look up the measured ID50 of COc1cc(C(=O)N2CO[C@](CCN3CCC4(CC3)c3ccccc3C[S@+]4[O-])(c3ccc(Cl)c(Cl)c3)C2)cc(OC)c1OC for me?
**Result** 0.074
